- TARGET_ENTITY: T1, HTP-2 protein (full length) (C. elegans)
- T1 construct: HTP-2, HORMA domain protein of the meiotic chromosome axis, C. elegans, full length; also called HTP-2 proteins
- ASSAY_PROCEDURE: fluorescence polarisation; 50 nM FITC peptide with various concentrations of HTP-2; 20 mM Tris pH 7.5, 300 mM NaCl, 10% glycerol, 1 mM DTT, 0.1% NP-40; 1 hour at room temperature; 384-well plates; single-site binding model
- RUN_PARAMETERS: both partners purified
Non-standard residues stand in square brackets, D forms with d. No end group written: not given here. pY = N[C@@H](Cc1ccc(OP(=O)(O)O)cc1)C(=O)O
Reported Kd by item:
State the answer as a number, implicitly in µM.

Solved cases (2 shown):
binder="RDSP[pY]GLSQGITKKNKD (also: fluorescein (FITC) conjugated, site not given here) [HIM-3 closure motif peptide phosphorylated at Tyr279, fluorescein-tagged]" readout_value=16.1
binder="RDSPYGLAQGITKKNKD (also: fluorescein (FITC) conjugated, site not given here) [HIM-3 closure motif peptide with the S282A substitution, fluorescein-tagged]" readout_value=11.3

Request: Reported Kd, binder RDSPYGLSQGITKKNKD (also: fluorescein (FITC) conjugated, site not given here) [HIM-3 closure motif peptide, unmodified (wild type), fluorescein-tagged] : ____
Response: 5.8
